The compounds listed here are annotated with their EC50.
biological target: recombinant DYRK1A kinase (Homo sapiens (Human), UniProt Q13627); assay: DYRK1A kinase assay (Ser/Thr 18 peptide Z-lyte FRET assay); format: biochemical; conditions: recombinant DYRK1A 0.25 µg/mL, ATP 15 µM, Ser/Thr peptide 18 4 µM, one hour at room temperature; table head prints EC50, method says IC50

- item-smiles: "O[C@H]1CC[C@@H](Nc2ncc3c(-c4ccc5nccnc5c4)ccn3n2)CC1"
  EC50 / nM: 23
- item-smiles: "Cc1nc2ncc(-c3ccn4nc(N[C@H]5CC[C@@](C)(O)CC5)ncc34)cc2n1CC(F)F"
  EC50 / nM: 4
- item-smiles: "COCCn1c(C)nc2ccc(-c3ccn4nc(NC5CCC(F)(F)CC5)ncc34)nc21"
  EC50 / nM: 26
- item-smiles: "Cc1nc2ncc(-c3ccn4nc(NCC(C)(C)F)ncc34)cc2n1C1CCOCC1"
  EC50 / nM: 11
- item-smiles: "Cc1nc2ncc(-c3ccn4nc(N[C@H]5CC[C@@H](OC(F)(F)F)CC5)ncc34)cc2n1CC(F)F"
  EC50 / nM: 5
- item-smiles: "[2H]C([2H])([2H])O[C@H]1CC[C@@H](Nc2ncc3c(-c4ccc5nc(C)n(CC(F)F)c5n4)ccn3n2)CC1"
  EC50 / nM: 3
- item-smiles: "Cc1nc2ccc(-c3ccn4nc(N[C@H]5CC[C@@](C)(O)CC5)ncc34)nc2n1CC1COC1"
  EC50 / nM: 14
